target: human GluN1/GluN2B NMDA receptors (Homo sapiens, UniProt Q13224); construct: expressed in transfected cells; experiment: Cell-based calcium flux (FLIPR) assay on cloned human NR1/NR2B ion channels expressed in mammalian cells (standard and HTS buffer variants); details: standard assay buffer (0.5 mM MgCl2 in dye loading buffer; 137 mM NaCl, 4 mM KCl in assay buffer), human GluN1/GluN2B, read-out: NR2B IC50 (μM) standard assay;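 also: stable Tet-On inducible cell line, Ca2+ influx triggered by glutamate at about EC40 plus 10 µM glycine, fluorescent dye read-out over 5 min, normalized to control wells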
Sequence (Q13224 27-1484, other chains not shown): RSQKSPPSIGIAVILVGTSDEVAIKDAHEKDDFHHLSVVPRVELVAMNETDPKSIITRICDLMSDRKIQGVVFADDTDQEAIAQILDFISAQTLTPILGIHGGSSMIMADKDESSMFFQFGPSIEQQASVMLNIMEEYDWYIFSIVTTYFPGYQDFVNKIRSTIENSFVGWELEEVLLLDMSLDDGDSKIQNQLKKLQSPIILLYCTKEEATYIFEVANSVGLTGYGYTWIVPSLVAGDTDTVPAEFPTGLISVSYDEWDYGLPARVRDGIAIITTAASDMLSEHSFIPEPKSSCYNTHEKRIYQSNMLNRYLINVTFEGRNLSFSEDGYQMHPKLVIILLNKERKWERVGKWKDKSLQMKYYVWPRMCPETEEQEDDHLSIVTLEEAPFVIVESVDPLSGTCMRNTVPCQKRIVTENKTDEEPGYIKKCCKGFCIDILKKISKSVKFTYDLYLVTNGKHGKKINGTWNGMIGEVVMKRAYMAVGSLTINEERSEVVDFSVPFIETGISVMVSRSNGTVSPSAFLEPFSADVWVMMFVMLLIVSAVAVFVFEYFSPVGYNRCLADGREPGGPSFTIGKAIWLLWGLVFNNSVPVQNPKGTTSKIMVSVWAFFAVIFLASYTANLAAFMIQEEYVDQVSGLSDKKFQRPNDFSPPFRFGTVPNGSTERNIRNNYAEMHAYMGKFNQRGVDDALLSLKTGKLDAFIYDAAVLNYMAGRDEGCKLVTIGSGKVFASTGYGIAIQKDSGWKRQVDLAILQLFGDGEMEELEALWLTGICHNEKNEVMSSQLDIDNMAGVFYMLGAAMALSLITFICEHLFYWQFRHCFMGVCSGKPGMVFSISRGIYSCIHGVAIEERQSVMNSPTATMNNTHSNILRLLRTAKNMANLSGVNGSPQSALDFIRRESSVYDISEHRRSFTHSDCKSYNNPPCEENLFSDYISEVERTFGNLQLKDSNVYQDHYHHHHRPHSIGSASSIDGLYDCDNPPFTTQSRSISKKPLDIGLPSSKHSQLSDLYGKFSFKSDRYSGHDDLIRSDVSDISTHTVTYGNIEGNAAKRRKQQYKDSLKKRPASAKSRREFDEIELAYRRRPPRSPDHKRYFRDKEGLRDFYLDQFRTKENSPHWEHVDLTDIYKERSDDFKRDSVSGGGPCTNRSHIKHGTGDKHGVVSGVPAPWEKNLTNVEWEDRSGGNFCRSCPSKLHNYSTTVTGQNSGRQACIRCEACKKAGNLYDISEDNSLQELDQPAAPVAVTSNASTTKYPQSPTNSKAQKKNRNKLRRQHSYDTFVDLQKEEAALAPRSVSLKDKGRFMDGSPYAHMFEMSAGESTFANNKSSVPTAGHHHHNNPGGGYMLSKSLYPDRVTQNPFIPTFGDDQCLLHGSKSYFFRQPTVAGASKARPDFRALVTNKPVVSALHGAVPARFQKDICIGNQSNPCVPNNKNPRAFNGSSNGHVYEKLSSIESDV
IC50: recorded values
MEASURED_PROPERTY: IC50 (µM)

# CPD_SMILES, REPORTED_MEASUREMENT
measured = [
    ("CCC(=O)Cn1c(=O)[nH]c2ncc(-c3cccc(C)c3)cc21", 0.036),
    ("O=C(Cn1c(=O)n(CF)c2ncc(-c3ccc(C(F)(F)F)s3)cc21)N1CCC1", 0.036),
    ("Cn1cc(Cn2c(=O)n(C)c3ncc(-c4ccc(C(F)F)s4)cc32)nn1", 0.28),
    ("CCC(=O)Cn1c(=O)n(C)c2ncc(-c3cccc(C4CC4)c3)cc21", 0.324),
    ("Cn1c(=O)n(CC(=O)N2CC(F)(F)C2)c2cc(-c3ccc(F)c(OC(F)F)c3)cnc21", 0.025),
]
